test system: layer V pyramidal neurons; experiment: Voltage-sensitive dye imaging of action potentials in intracellularly stained pyramidal neurons in brain slices; type: cell-based, Sprague Dawley rats; conditions: backpropagating AP, basal dendrites 80-150 μm from soma; laser spot 658 nm; %
observationType: dF/F at 658 nm (%)
I only need the number, in %, no unit after it.

Worked cases, dF/F at 658 nm given:
compound	dF/F at 658 nm / %
CCCN(CCC)c1ccc(-c2ccc(/C=C/c3cc[n+](CCC[N+](CC)(CC)CC)cc3)s2)s1	7.64
CCN(CC)c1ccc(-c2ccc(-c3ccc(/C=C/c4cc[n+](CCC[N+](CC)(CC)CC)cc4)s3)s2)s1	5.89
CN(C)c1ccc(/C=C/c2ccc(/C=C/c3cc[n+](CCC[N+](C)(C)C)c4ccccc34)o2)cc1	5.13
CCCCN(CCCC)c1ccc2cc(/C=C/C=C/c3cc[n+](CCC[N+](C)(C)C)c4ccccc34)ccc2c1.[Br-].[Br-] [di-4-ANBDQPQ, Di-4-ANBDQPQ, reference compound]	1.23
CCCCN(CCCC)c1ccc(-c2ccc(/C=C/c3cc[n+](CCC[N+](CC)(CC)CC)cc3)s2)s1	8.32

-- ask Query the reported dF/F at 658 nm for layer V pyramidal neurons; item: CCN(CC)c1ccc2cc(/C=C/C=C/c3cc[n+](CCC[N+](C)(C)C)c4ccccc34)ccc2c1.[Br-].[Br-]
-- reply 11.03

-- ask Cool, now CCN(CC)c1ccc(-c2ccc(/C=C/c3cc[n+](CCC[N+](CC)(CC)CC)cc3)s2)s1
-- reply 7.91
